# Test system: Arabidopsis thaliana Columbia-0
# assay.details: Arabidopsis horizontal plate leaf area assay
# Format: in vivo
# condition.label: Arabidopsis horizontal plates (Table 4); control without compound 63
Can you tell me Average leaf area for the items I'm about to list?
Give your result in mm^2 as a bare value.

Query: Which Average leaf area reading was recorded for the molecule CCN(CCCNC)c1ccccc1 ?
Result: 65

Query: Repeat for the following molecule: NCCCNc1ccccc1
Result: 69

Query: Repeat for the following molecule: CN(CCCN)c1ccccc1
Result: 72

Query: Repeat for the following molecule: CCN(CCCNc1ncnc2nc(N)ccc12)c1ccccc1
Result: 66
